B1: TPR 5TU (parent)
chain: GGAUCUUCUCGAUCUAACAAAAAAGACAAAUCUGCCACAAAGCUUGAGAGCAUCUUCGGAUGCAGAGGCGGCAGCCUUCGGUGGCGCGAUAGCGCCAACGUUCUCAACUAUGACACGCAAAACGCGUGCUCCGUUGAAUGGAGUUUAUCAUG

- Variants of: B1
- assay-name: polymerase ribozyme fitness, log enrichment relative to wild type (log ratio); higher = more active; in vitro selection for triplet polymerase activity
Variants at the floor of the assay were thinned out.
Let's look at some variants and their measured polymerase ribozyme fitness (log ratio).
property-label: polymerase ribozyme fitness (log ratio)

[[record]]
mutation = "A19G U109C G141A"
property_label = "polymerase ribozyme fitness (log ratio)"
result = -2.85

[[record]]
mutation = "A66G A73U G81A G92U U111C"
property_label = "polymerase ribozyme fitness (log ratio)"
result = "≤ -4.2"

[[record]]
mutation = "G42A C75G C87A"
property_label = "polymerase ribozyme fitness (log ratio)"
result = "≤ -4.2"

[[record]]
mutation = "C27A A28G A40C A47C A73C U77C C99G"
property_label = "polymerase ribozyme fitness (log ratio)"
result = "≤ -4.2"

[[record]]
mutation = "U33A C75G C76A A142G"
property_label = "polymerase ribozyme fitness (log ratio)"
result = "≤ -4.2"

[[record]]
mutation = "C75U C96G"
property_label = "polymerase ribozyme fitness (log ratio)"
result = 0.716

[[record]]
mutation = "C54A C76G A89U G92U U130G C149A U151A"
property_label = "polymerase ribozyme fitness (log ratio)"
result = "≤ -4.2"

[[record]]
mutation = "C79A A91G A110G"
property_label = "polymerase ribozyme fitness (log ratio)"
result = "≤ -4.2"

[[record]]
mutation = "C27U A28C U44G A52C C93A"
property_label = "polymerase ribozyme fitness (log ratio)"
result = -4.1

[[record]]
mutation = "A3U A24G C32G"
property_label = "polymerase ribozyme fitness (log ratio)"
result = -4.15

[[record]]
mutation = "C69G A106C A137C"
property_label = "polymerase ribozyme fitness (log ratio)"
result = "≤ -4.2"

[[record]]
mutation = "G46C U109G"
property_label = "polymerase ribozyme fitness (log ratio)"
result = -1.81

[[record]]
mutation = "G84A G136C"
property_label = "polymerase ribozyme fitness (log ratio)"
result = -3.25

[[record]]
mutation = "C51A G140C"
property_label = "polymerase ribozyme fitness (log ratio)"
result = -4.19

[[record]]
mutation = "U56G G68U"
property_label = "polymerase ribozyme fitness (log ratio)"
result = "≤ -4.2"

[[record]]
mutation = "U31C U53G"
property_label = "polymerase ribozyme fitness (log ratio)"
result = -0.735

[[record]]
mutation = "G83A C99U G143A A147U"
property_label = "polymerase ribozyme fitness (log ratio)"
result = -3.6

[[record]]
mutation = "A12U C36G G86A A110C U139A"
property_label = "polymerase ribozyme fitness (log ratio)"
result = -4.11

[[record]]
mutation = "U6G G92A"
property_label = "polymerase ribozyme fitness (log ratio)"
result = -2.59

[[record]]
mutation = "C87A C96U C99G U111C C125A"
property_label = "polymerase ribozyme fitness (log ratio)"
result = "≤ -4.2"

[[record]]
mutation = "G11A A39G C54G C87U C96G"
property_label = "polymerase ribozyme fitness (log ratio)"
result = "≤ -4.2"

[[record]]
mutation = "A41U C54G G88C U130A"
property_label = "polymerase ribozyme fitness (log ratio)"
result = "≤ -4.2"

